B1: TOR1AIP2 (parent)
chain: YKYCDHENAAFKDVALVLTVLLEE

# Variants of: B1
# measurement_notes: protein stability index of a GFP-peptide fusion (GPS, HEK-293T) (PSI 1-6); higher = more stable;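 note: lentivirally expressed fusions sorted by FACS into six bins by GFP to DsRed ratio, PSI derived from sequencing read proportions per bin multiplied by bin number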
# run_parameters: c terminus: a fixed tail appended
metric: protein stability index
Just the number, please.

V20T	2.03

Problem: Could you share which protein stability index value was measured for L18T ?
Result: 1.96

Problem: So what's the measured protein stability index for this one? K2N
Result: 1.99
